The values you see were collected from patent US8415386B2.

compounds and their reported Ki
- tested.system: mutated (E4Q, A5T) hMCHR1 receptor (Homo sapiens, UniProt Q99705, A5T/E4Q)
- Sequence (Q99705 whole entry E4Q/A5T): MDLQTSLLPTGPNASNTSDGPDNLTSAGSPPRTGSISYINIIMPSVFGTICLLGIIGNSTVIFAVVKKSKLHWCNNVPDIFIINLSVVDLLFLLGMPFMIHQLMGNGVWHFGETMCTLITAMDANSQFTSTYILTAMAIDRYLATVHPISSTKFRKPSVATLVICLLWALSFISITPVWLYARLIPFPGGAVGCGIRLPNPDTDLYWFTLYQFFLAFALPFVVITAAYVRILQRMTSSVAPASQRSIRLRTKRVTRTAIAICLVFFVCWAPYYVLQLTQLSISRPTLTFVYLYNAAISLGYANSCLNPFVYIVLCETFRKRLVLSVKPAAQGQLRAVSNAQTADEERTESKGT
- test.details: Radioligand Binding Assay for Assessment of MCHR1 Activity
- study.conditions: membranes from stably transfected HEK-293 cells; competition with [Phe13,[125I]Tyr19]-MCH
Counter-ions that a name gives are not always drawn.
Provide only the numeric value, understood in nM.

{"compound": "CN(C(=O)OC(C)(C)C)[C@@H]1CCN(c2ccc(N3Cc4cn(-c5ccc(Cl)cc5)nc4C3=O)cn2)C1 [Example 19A]", "tested.system": "mutated (E4Q, A5T) hMCHR1 receptor (Homo sapiens, UniProt Q99705, A5T/E4Q)", "Ki (nM)": 184}

Asked: Record request: Ki value, item CN(C(=O)OC(C)(C)C)[C@H]1CCN(c2ccc(N3Cc4cn(-c5ccc(Cl)cc5)nc4C3=O)cn2)C1 [Example 20A]
Given back: 784

Asked: Record request: Ki value, item COc1cc(N2Cc3nn(-c4ccc(Cl)cc4)cc3C2=O)ccc1OC[C@H](O)C1CC1
Given back: 41.4

Asked: Record request: Ki value, item COc1cc(N2Cc3nn(-c4ccc(Cl)cc4)nc3C2=O)ccc1OCC(=O)C1CC1 [Example 14B]
Given back: 304

Asked: Record request: Ki value, item CN(C(=O)OC(C)(C)C)C1CCN(c2ccc(N3Cc4cn(-c5ccc(Cl)cc5)nc4C3=O)cn2)C1 (centres unmarked) [Example 16G]
Given back: 3.6

Asked: Record request: Ki value, item COc1cc(N2Cc3nn(-c4ccc(Cl)cc4)nc3C2=O)ccc1OCC(C)(C)O
Given back: 34.3

Asked: Record request: Ki value, item O=C1c2nn(-c3ccc(Cl)cc3)cc2CN1c1ccc(N2CCC(N3CCCC3)CC2)nc1
Given back: 17.1

Asked: Record request: Ki value, item CN(C)[C@@H]1CCN(c2ccc(N3Cc4cn(-c5ccc(Cl)cc5)nc4C3=O)cn2)C1 [Example 18, HCl]
Given back: 0.7

---

- tested.system: mutated (E4Q, A5T) hMCHR1 receptor (Homo sapiens, UniProt Q99705, A5T/E4Q)
- test.details: Radioligand Binding Assay for Assessment of MCHR1 Activity
- study.conditions: membranes from stably transfected HEK-293 cells; competition with [Phe13,[125I]Tyr19]-MCH
- Experimental: Radioligand Binding Assay for Assessment of MCHR1 Activity Membranes from stably transfected HEK-293 cells expressing a mutated (E4Q, A5T) hMCHR1 receptor were prepared by dounce homogenization and differential centrifugation. […] Filters were dried, 0.05 ml microscint 20 was added to each well and radioactivity was subsequently quantified by scintillation counting on a TOPCOUNT® microplate scintillation counter (Packard). […]
pKi: −log10 of the molar value. Counter-ions that a name gives are not always drawn.
The label depends only on pKi: rule met if it is at least 8, rule not met if it is smaller.

{"molecule": "CN[C@H]1CCN(c2ccc(N3Cc4cn(-c5ccc(Cl)cc5)nc4C3=O)cc2OC)C1 [Example 42, TFA]", "label.value": "rule met"}

Asked: Decide: pKi of CC(C)(C)NC1CCN(c2ccc(N3Cc4cn(-c5ccc(Cl)cc5)nc4C3=O)cn2)C1 (stereo not drawn) >= 8?
Given back: rule met

Asked: Decide: pKi of COc1cc(N2Cc3nn(-c4ccc(Cl)cc4)nc3C2=O)ccc1OCCN1CCCC1 >= 8?
Given back: rule met

Asked: Decide: pKi of O=C1c2nn(-c3ccc(Cl)cc3)cc2CN1c1ccc(N2CC[C@@H](O)C2)nc1 >= 8?
Given back: rule not met

Asked: Decide: pKi of CNC1CCN(c2ccc(N3Cc4cn(-c5ccc(Cl)cc5)nc4C3=O)cn2)C1 (stereo not drawn) [Example 16, TFA] >= 8?
Given back: rule met

Asked: Decide: pKi of COc1cc(N2Cc3nn(-c4ccc(Cl)cc4)cc3C2=O)ccc1OCC(C)O (stereo not drawn) >= 8?
Given back: rule not met

Asked: Decide: pKi of CN[C@@H]1CCN(c2ccc(N3Cc4cn(-c5ccc(Cl)cc5)nc4C3=O)cn2)C1 [Example 19, HCl] >= 8?
Given back: rule met

Asked: Decide: pKi of CN[C@H]1CCN(c2ncc(N3Cc4cn(-c5ccc(Cl)cc5)nc4C3=O)cn2)C1 >= 8?
Given back: rule not met

Asked: Decide: pKi of COc1cc(N2Cc3cn(-c4ccc(Cl)cc4)nc3C2=O)ccc1OC[C@H](OC(=O)[C@@H](N)C(C)C)C1CC1 [Example 10, TFA salt] >= 8?
Given back: rule met

---

compounds and their reported Ki
- tested.system: mutated (E4Q, A5T) hMCHR1 receptor (Homo sapiens, UniProt Q99705, A5T/E4Q)
- test.details: Radioligand Binding Assay for Assessment of MCHR1 Activity
- study.conditions: membranes from stably transfected HEK-293 cells; competition with [Phe13,[125I]Tyr19]-MCH
Counter-ions that a name gives are not always drawn.
Provide only the numeric value, understood in nM.

Look over these answered cases.
{"compound": "COc1cc(N2Cc3cn(-c4ccc(Cl)cc4)nc3C2=O)ccc1OCC(C)OS(C)(=O)=O (stereo not drawn)", "Ki [nM]": 13.7}
{"compound": "COc1cc(N2Cc3cn(-c4ccc(Cl)cc4)nc3C2=O)ccc1OC[C@H](O)C1CC1", "Ki [nM]": 8.6}
{"compound": "COc1cc(N2Cc3cn(-c4ccc(Cl)cc4)nc3C2=O)ccc1OCC(C)(C)O", "Ki [nM]": 12.5}
{"compound": "CN(C)[C@H]1CCN(c2ccc(N3Cc4cn(-c5ccc(Cl)cc5)nc4C3=O)cn2)C1 [Example 17, HCl]", "Ki [nM]": 0.9}

Asked: Record request: Ki value, item COc1cc(N2Cc3cn(-c4ccc(Cl)cc4)nc3C2=O)ccc1OCC(C)O (stereo not drawn)
Given back: 13.2

Asked: Record request: Ki value, item COc1cc(N2Cc3cn(-c4ccc(Cl)cc4)nc3C2=O)ccc1OCCN1CCCC1 [Example 15, TFA]
Given back: 0.7

Asked: Record request: Ki value, item CN[C@H]1CCN(c2ccc(N3Cc4cn(-c5ccc(Cl)cc5)nc4C3=O)cn2)C1 [Example 20, HCl]
Given back: 0.9

Asked: Record request: Ki value, item O=C1c2nn(-c3ccc(Cl)cc3)cc2CN1c1ccc(N2CCC(N3CCCC3)C2)nc1 (stereo not drawn)
Given back: 0.9

Asked: Record request: Ki value, item COc1ccc(N2Cc3cn(-c4ccc(Cl)cc4)nc3C2=O)cc1OC
Given back: 49.4

Asked: Record request: Ki value, item COc1cc(N2Cc3nn(-c4ccc(Cl)cc4)cc3C2=O)ccc1OCC(C)(C)O
Given back: 106

Asked: Record request: Ki value, item COc1cc(N2Cc3nn(-c4ccc(Cl)cc4)nc3C2=O)ccc1OCC(O)C1CC1 (stereo not drawn)
Given back: 113

Asked: Record request: Ki value, item COc1cc(N2Cc3nn(-c4ccc(Cl)cc4)cc3C2=O)ccc1OCC(C)OS(C)(=O)=O (stereo not drawn)
Given back: 41.1
